Entries and their ED50 values follow.
Test system: Streptococcus pyogenes
Assay: Subcutaneously administration into mice infected with Streptococcus pyogenes C 203
Assay type: functional
Conditions: sc
Report the figure in mg/kg without appending any unit label.

Query block: Entry CNCCN(C)C(=O)[C@H]1NC(=O)[C@H]2NC(=O)[C@H](NC(=O)[C@@H]3NC(=O)[C@H]4NC(=O)[C@@H](Cc5ccc(c(Cl)c5)Oc5cc3cc(c5O[C@@H]3O[C@@H](CO)[C@@H](O)[C@H](O)[C@@H]3NC(=O)CCCCCCC(C)C)Oc3ccc(cc3Cl)[C@H]2O[C@@H]2O[C@@H](CO)[C@@H](O)[C@H](O)[C@@H]2NC(C)=O)NC(=O)[C@H](N)c2ccc(O)c(c2)Oc2cc(O)cc4c2)c2ccc(O)c(c2)-c2c(O[C@H]3O[C@H](CO)[C@@H](O)[C@@H](O)[C@@H]3O)cc(O)cc21 : reported ED50 = ?
Result block: 0.1

Query block: Entry CN(C)CCCNC(=O)[C@H]1NC(=O)[C@H]2NC(=O)[C@H](NC(=O)[C@@H]3NC(=O)[C@H]4NC(=O)[C@@H](Cc5ccc(c(Cl)c5)Oc5cc3cc(c5O)Oc3ccc(cc3Cl)[C@H]2O)NC(=O)[C@H](N)c2ccc(O)c(c2)Oc2cc(O)cc4c2)c2ccc(O)c(c2)-c2c(O)cc(O)cc21 : reported ED50 = ?
Result block: 0.31

* * *

Tested on: Streptococcus pyogenes
Assay: Subcutaneously administration into mice infected with Streptococcus pyogenes C 203
Type: functional
Settings: sc
Endpoint name: ED50 (mg/kg)
Report the figure in mg/kg without appending any unit label.

CC(=O)N[C@@H]1[C@H](O[C@@H]2c3ccc(c(Cl)c3)Oc3cc4cc(c3O[C@@H]3O[C@@H](CO)[C@@H](O)[C@H](O)[C@@H]3NC(=O)CCCCCCC(C)C)Oc3ccc(cc3Cl)C[C@H]3NC(=O)[C@H](N)c5ccc(O)c(c5)Oc5cc(O)cc(c5)[C@H](NC3=O)C(=O)N[C@H]4C(=O)N[C@H]3C(=O)N[C@@H]2C(=O)N[C@H](C(=O)NCCCCCN(C)C)c2cc(O)cc(O[C@H]4O[C@H](CO)[C@@H](O)[C@@H](O)[C@@H]4O)c2-c2cc3ccc2O)O[C@@H](CO)[C@@H](O)[C@@H]1O; 0.12

Query block: Reported ED50 for Streptococcus pyogenes, given N[C@H]1C(=O)N[C@@H]2Cc3ccc(c(Cl)c3)Oc3cc4cc(c3O)Oc3ccc(cc3Cl)[C@@H](O)[C@@H]3NC(=O)[C@H](NC(=O)[C@@H]4NC(=O)[C@@H](NC2=O)c2cc(O)cc(c2)Oc2cc1ccc2O)c1ccc(O)c(c1)-c1c(O)cc(O)cc1[C@@H](C(=O)NC1CN2CCC1CC2)NC3=O (stereo partly drawn) ?
Result block: 0.46

* * *

Entries and their MIC values follow.
Test system: Enterococcus faecalis
Experiment: In vitro minimum inhibitory concentration against Streptococcus faecalis ATCC 7080
Format: functional
Provide a numeric answer, followed by its unit.

Here are 5 compounds together with their reported answers.
CCCCC/C=C/CCC(=O)N[C@@H]1[C@H](Oc2c3cc4cc2Oc2ccc(cc2Cl)[C@@H](O[C@@H]2O[C@@H](CO)[C@@H](O)[C@H](O)[C@@H]2NC(C)=O)[C@@H]2NC(=O)[C@H](NC(=O)[C@@H]4NC(=O)[C@H]4NC(=O)[C@@H](Cc5ccc(c(Cl)c5)O3)NC(=O)[C@H](N)c3ccc(O)c(c3)Oc3cc(O)cc4c3)c3ccc(O)c(c3)-c3c(O[C@H]4O[C@H](CO)[C@@H](O)[C@@H](O)[C@@H]4O)cc(O)cc3[C@@H](C(=O)NC(CCC(=O)O)C(=O)O)NC2=O)O[C@@H](CO)[C@@H](O)[C@@H]1O (some centres undefined); 0.25 µg/mL
N[C@H]1C(=O)N[C@@H]2Cc3ccc(c(Cl)c3)Oc3cc4cc(c3O)Oc3ccc(cc3Cl)[C@@H](O)[C@@H]3NC(=O)[C@H](NC(=O)[C@@H]4NC(=O)[C@@H](NC2=O)c2cc(O)cc(c2)Oc2cc1ccc2O)c1ccc(O)c(c1)-c1c(O)cc(O)cc1[C@@H](C(=O)NC1CN2CCC1CC2)NC3=O (some centres undefined); 0.12 µg/mL
CN(C)CCCNC(=O)[C@H]1NC(=O)[C@H]2NC(=O)[C@H](NC(=O)[C@@H]3NC(=O)[C@H]4NC(=O)[C@@H](Cc5ccc(c(Cl)c5)Oc5cc3cc(c5O)Oc3ccc(cc3Cl)[C@H]2O)NC(=O)[C@H](N)c2ccc(O)c(c2)Oc2cc(O)cc4c2)c2ccc(O)c(c2)-c2c(O)cc(O)cc21; 0.12 µg/mL
NCCCNC(=O)[C@H]1NC(=O)[C@H]2NC(=O)[C@H](NC(=O)[C@@H]3NC(=O)[C@H]4NC(=O)[C@@H](Cc5ccc(c(Cl)c5)Oc5cc3cc(c5O)Oc3ccc(cc3Cl)[C@H]2O)NC(=O)[C@H](N)c2ccc(O)c(c2)Oc2cc(O)cc4c2)c2ccc(O)c(c2)-c2c(O)cc(O)cc21; 0.12 µg/mL
CC(=O)N[C@@H]1[C@H](O[C@@H]2c3ccc(c(Cl)c3)Oc3cc4cc(c3O)Oc3ccc(cc3Cl)C[C@H]3NC(=O)[C@H](N)c5ccc(O)c(c5)Oc5cc(O)cc(c5)[C@H](NC3=O)C(=O)N[C@H]4C(=O)N[C@H]3C(=O)N[C@@H]2C(=O)N[C@H](C(=O)NCCN2CCCC2)c2cc(O)cc(O[C@H]4O[C@H](CO)[C@@H](O)[C@@H](O)[C@@H]4O)c2-c2cc3ccc2O)O[C@@H](CO)[C@@H](O)[C@@H]1O; 0.5 µg/mL

Query block: Reported MIC for Enterococcus faecalis, given CC(=O)N[C@@H]1[C@H](O[C@@H]2c3ccc(c(Cl)c3)Oc3cc4cc(c3O[C@@H]3O[C@@H](CO)[C@@H](O)[C@H](O)[C@@H]3NC(=O)CCCCCCC(C)C)Oc3ccc(cc3Cl)C[C@H]3NC(=O)[C@H](N)c5ccc(O)c(c5)Oc5cc(O)cc(c5)[C@H](NC3=O)C(=O)N[C@H]4C(=O)N[C@H]3C(=O)N[C@@H]2C(=O)N[C@H](C(=O)NCCCCN(C)C)c2cc(O)cc(O[C@H]4O[C@H](CO)[C@@H](O)[C@@H](O)[C@@H]4O)c2-c2cc3ccc2O)O[C@@H](CO)[C@@H](O)[C@@H]1O ?
Result block: 0.12 µg/mL

Query block: Reported MIC for Enterococcus faecalis, given CC(=O)N[C@@H]1[C@H](O[C@@H]2c3ccc(c(Cl)c3)Oc3cc4cc(c3O[C@@H]3O[C@@H](CO)[C@@H](O)[C@H](O)[C@@H]3NC(=O)CCCCCCC(C)C)Oc3ccc(cc3Cl)C[C@H]3NC(=O)[C@H](N)c5ccc(O)c(c5)Oc5cc(O)cc(c5)[C@H](NC3=O)C(=O)N[C@H]4C(=O)N[C@H]3C(=O)N[C@@H]2C(=O)N[C@H](C(=O)N(C)C)c2cc(O)cc(O[C@H]4O[C@H](CO)[C@@H](O)[C@@H](O)[C@@H]4O)c2-c2cc3ccc2O)O[C@@H](CO)[C@@H](O)[C@@H]1O ?
Result block: 0.12 µg/mL

Query block: Reported MIC for Enterococcus faecalis, given CNCCN(C)C(=O)[C@H]1NC(=O)[C@H]2NC(=O)[C@H](NC(=O)[C@@H]3NC(=O)[C@H]4NC(=O)[C@@H](Cc5ccc(c(Cl)c5)Oc5cc3cc(c5O[C@@H]3O[C@@H](CO)[C@@H](O)[C@H](O)[C@@H]3NC(=O)CCCCCCC(C)C)Oc3ccc(cc3Cl)[C@H]2O[C@@H]2O[C@@H](CO)[C@@H](O)[C@H](O)[C@@H]2NC(C)=O)NC(=O)[C@H](N)c2ccc(O)c(c2)Oc2cc(O)cc4c2)c2ccc(O)c(c2)-c2c(O[C@H]3O[C@H](CO)[C@@H](O)[C@@H](O)[C@@H]3O)cc(O)cc21 ?
Result block: 0.12 µg/mL

Query block: Reported MIC for Enterococcus faecalis, given NCCNC(=O)[C@H]1NC(=O)[C@H]2NC(=O)[C@H](NC(=O)[C@@H]3NC(=O)[C@H]4NC(=O)[C@@H](Cc5ccc(c(Cl)c5)Oc5cc3cc(c5O)Oc3ccc(cc3Cl)[C@H]2O)NC(=O)[C@H](N)c2ccc(O)c(c2)Oc2cc(O)cc4c2)c2ccc(O)c(c2)-c2c(O)cc(O)cc21 ?
Result block: 0.12 µg/mL
